test system: 415267-285-R-J2-PDC complex spheroid viability; experiment: Anticancer human tumor 415267-285-R-J2-PDC patient-derived breast carcinoma cell line growth inhibition [POLQ]; settings: second compound 1 µM; first compound 10 µM; active = viability on the fitted dose curve at most 10% of control; inactive = the rest
Log the outcome using a class from active, inactive

| Molecule | Study System | Group |
| --- | --- | --- |
| COc1ccc([C@@H](O)c2cc(-c3ncnc4cc(N5CCOCC5)ccc34)c(F)cc2Cl)nn1 + COC1C(OC(N)=O)C(O)C(Oc2ccc3c(O)c(NC(=O)c4ccc(O)c(CC=C(C)C)c4)c(=O)oc3c2C)OC1(C)C | 415267-285-R-J2-PDC complex spheroid viability | inactive |

Exercise: Assay result, entry CC(C)n1c(=O)n(C)c2cnc3cc(F)c(-c4ccc(OCCCN5CCCCC5)nc4)cc3c21 + COC1C(OC(N)=O)C(O)C(Oc2ccc3c(O)c(NC(=O)c4ccc(O)c(CC=C(C)C)c4)c(=O)oc3c2C)OC1(C)C — outcome?
Solution: inactive

Exercise: Dear colleague, could you share the recorded outcome for CCc1cc2c(N3CCc4c(cc(Cn5ccnc5)cc4-c4cn(C)nc4C(F)(F)F)C3=O)cc(C)nc2c(OC)n1 + COC1C(OC(N)=O)C(O)C(Oc2ccc3c(O)c(NC(=O)c4ccc(O)c(CC=C(C)C)c4)c(=O)oc3c2C)OC1(C)C when you have a moment?
Solution: inactive

Exercise: Recorded call for CCc1cc2c(N3CCc4c(cc(Cn5ccnc5)cc4-c4cn(C)nc4C(F)(F)F)C3=O)ccnc2c(OC)n1 + Cc1cccc(N(C)C(=O)C2C(O)CCN2c2nc(C)cc(C(F)(F)F)c2C#N)c1 ?
Solution: inactive

Exercise: Hi, do you know how C=CC(=O)N1CCN(c2nc(=O)n(-c3c(C)ccnc3C(C)C)c3nc(-c4c(O)cccc4F)c(F)cc23)C(C)C1 (configuration not stated) + COC1C(OC(N)=O)C(O)C(Oc2ccc3c(O)c(NC(=O)c4ccc(O)c(CC=C(C)C)c4)c(=O)oc3c2C)OC1(C)C came out in this test?
Solution: inactive

Exercise: Could you kindly confirm the outcome this assay logged for CC1COCCN1c1cc(-c2ccnn2C)c2ccnc(-c3ccn[nH]3)c2n1 (configuration not stated) + COC1C(OC(N)=O)C(O)C(Oc2ccc3c(O)c(NC(=O)c4ccc(O)c(CC=C(C)C)c4)c(=O)oc3c2C)OC1(C)C ?
Solution: active

Exercise: Please let me know the test result on file for COc1cccc2c1C(=O)c1c(O)c3c(c(O)c1C2=O)CC(O)(C(=O)CO)CC3OC1CC(N)C(O)C(C)O1 (configuration not stated) + Nc1ccc(C#CCN(C(=O)Cc2ncc(C(F)(F)F)cc2C(F)(F)F)c2ccc(F)cc2)nn1 .
Solution: active

Exercise: Which outcome did this test record for the molecule COc1cccc2c1C(=O)c1c(O)c3c(c(O)c1C2=O)CC(O)(C(=O)CO)CC3OC1CC(N)C(O)C(C)O1 (configuration not stated) + Cc1cccc(N(C)C(=O)C2C(O)CCN2c2nc(C)cc(C(F)(F)F)c2C#N)c1 ?
Solution: active

Exercise: How did this test come out for O=C(Nc1ccc(O)c(NS(=O)(=O)c2ccc(F)cc2)c1)c1ccc(-c2ccccc2)cc1 + Cc1cccc(N(C)C(=O)C2C(O)CCN2c2nc(C)cc(C(F)(F)F)c2C#N)c1 ?
Solution: inactive

Exercise: Test call for this molecule, please: CC1COCCN1c1cc(-c2ccnn2C)c2ccnc(-c3ccn[nH]3)c2n1 (configuration not stated) + Cc1cccc(N(C)C(=O)C2C(O)CCN2c2nc(C)cc(C(F)(F)F)c2C#N)c1
Solution: active

Exercise: Look up the recorded call for CCCS(=O)(=O)Nc1ccc(F)c(C(=O)c2c[nH]c3ncc(-c4ccc(Cl)cc4)cc23)c1F + COC1C(OC(N)=O)C(O)C(Oc2ccc3c(O)c(NC(=O)c4ccc(O)c(CC=C(C)C)c4)c(=O)oc3c2C)OC1(C)C in this test.
Solution: inactive

Exercise: // outcome(item) with item = CC1COCCN1c1cc(C2(S(C)(=N)=O)CC2)nc(-c2ccnc3[nH]ccc23)n1 (configuration not stated) + Nc1ccc(C#CCN(C(=O)Cc2ncc(C(F)(F)F)cc2C(F)(F)F)c2ccc(F)cc2)nn1
Solution: active

###

system: 415267-285-R-J2-PDC complex spheroid viability; assay: Anticancer human tumor 415267-285-R-J2-PDC cell line growth inhibition [POLQ]; settings: curve of first compound; second compound 3.16 µM;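 also: spheroids exposed to compounds for one week before readout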
What IC50 was measured for each of the following?

| Molecule | Result |
| --- | --- |
| Cn1ncnc1[C@H]1c2n[nH]c(=O)c3cc(F)cc(c23)N[C@@H]1c1ccc(F)cc1 + COC1C(OC(N)=O)C(O)C(Oc2ccc3c(O)c(NC(=O)c4ccc(O)c(CC=C(C)C)c4)c(=O)oc3c2C)OC1(C)C | > 100 nM |

For every record below, what is its IC50?
1. COc1cccc2c1C(=O)c1c(O)c3c(c(O)c1C2=O)CC(O)(C(=O)CO)CC3OC1CC(N)C(O)C(C)O1 (centres undefined) + COC1C(OC(N)=O)C(O)C(Oc2ccc3c(O)c(NC(=O)c4ccc(O)c(CC=C(C)C)c4)c(=O)oc3c2C)OC1(C)C
2. Cn1ncnc1[C@H]1c2n[nH]c(=O)c3cc(F)cc(c23)N[C@@H]1c1ccc(F)cc1 + Cc1cccc(N(C)C(=O)C2C(O)CCN2c2nc(C)cc(C(F)(F)F)c2C#N)c1
3. CC1COCCN1c1cc(C2(S(C)(=N)=O)CC2)nc(-c2ccnc3[nH]ccc23)n1 (centres undefined) + COC1C(OC(N)=O)C(O)C(Oc2ccc3c(O)c(NC(=O)c4ccc(O)c(CC=C(C)C)c4)c(=O)oc3c2C)OC1(C)C
4. C#Cc1c(F)ccc2cc(O)cc(-c3ncc4c(N5CC6CCC(C5)N6)nc(OCC56CCCN5CC(F)C6)nc4c3F)c12 (centres undefined) + COC1C(OC(N)=O)C(O)C(Oc2ccc3c(O)c(NC(=O)c4ccc(O)c(CC=C(C)C)c4)c(=O)oc3c2C)OC1(C)C

Solution:
1: 39 nM; 2: > 100 nM; 3: 591 nM; 4: > 10000 nM

Give IC50 for each listed item.
1. CNCc1ccc(-c2[nH]c3cc(F)cc4c3c2CCNC4=O)cc1 + COC1C(OC(N)=O)C(O)C(Oc2ccc3c(O)c(NC(=O)c4ccc(O)c(CC=C(C)C)c4)c(=O)oc3c2C)OC1(C)C
2. O=c1[nH]cc(F)c(=O)[nH]1 + Nc1ccc(C#CCN(C(=O)Cc2ncc(C(F)(F)F)cc2C(F)(F)F)c2ccc(F)cc2)nn1
3. CC1COCCN1c1cc(C2(O)CC3CCC(C2)O3)c2cnn(-c3ccn[nH]3)c2n1 (centres undefined) + Nc1ccc(C#CCN(C(=O)Cc2ncc(C(F)(F)F)cc2C(F)(F)F)c2ccc(F)cc2)nn1
4. CC[C@@]1(O)C(=O)OCc2c1cc1n(c2=O)Cc2cc3c(CN(C)C)c(O)ccc3nc2-1 + COC1C(OC(N)=O)C(O)C(Oc2ccc3c(O)c(NC(=O)c4ccc(O)c(CC=C(C)C)c4)c(=O)oc3c2C)OC1(C)C
5. COc1ccc([C@@H](O)c2cc(-c3ncnc4cc(N5CCOCC5)ccc34)c(F)cc2Cl)nn1 + Cc1cccc(N(C)C(=O)C2C(O)CCN2c2nc(C)cc(C(F)(F)F)c2C#N)c1
6. CCc1c2c(nc3ccc(O)cc13)-c1cc3c(c(=O)n1C2)COC(=O)[C@]3(O)CC + COC1C(OC(N)=O)C(O)C(Oc2ccc3c(O)c(NC(=O)c4ccc(O)c(CC=C(C)C)c4)c(=O)oc3c2C)OC1(C)C
7. CC(C)n1c(=O)n(C)c2cnc3cc(F)c(-c4ccc(OCCCN5CCCCC5)nc4)cc3c21 + Nc1ccc(C#CCN(C(=O)Cc2ncc(C(F)(F)F)cc2C(F)(F)F)c2ccc(F)cc2)nn1
8. CCc1cc2c(N3CCc4c(cc(Cn5ccnc5)cc4-c4cn(C)nc4C(F)(F)F)C3=O)ccnc2c(OC)n1 + COC1C(OC(N)=O)C(O)C(Oc2ccc3c(O)c(NC(=O)c4ccc(O)c(CC=C(C)C)c4)c(=O)oc3c2C)OC1(C)C

Solution:
1: > 10000 nM; 2: 268 nM; 3: < 31.6 nM; 4: 19.4 nM; 5: 7220 nM; 6: < 3.16 nM; 7: > 10000 nM; 8: > 10000 nM

Could you report IC50 for every entry in the following list?
1. C=CC(=O)N1CCN(c2nc(=O)n(-c3c(C)ccnc3C(C)C)c3nc(-c4c(O)cccc4F)c(F)cc23)C(C)C1 (centres undefined) + Cc1cccc(N(C)C(=O)C2C(O)CCN2c2nc(C)cc(C(F)(F)F)c2C#N)c1
2. O=C(Nc1ccc(O)c(NS(=O)(=O)c2ccc(F)cc2)c1)c1ccc(-c2ccccc2)cc1 + Cc1cccc(N(C)C(=O)C2C(O)CCN2c2nc(C)cc(C(F)(F)F)c2C#N)c1
3. O=C(c1cc(Cc2n[nH]c(=O)c3ccccc23)ccc1F)N1CCN(C(=O)C2CC2)CC1 + COC1C(OC(N)=O)C(O)C(Oc2ccc3c(O)c(NC(=O)c4ccc(O)c(CC=C(C)C)c4)c(=O)oc3c2C)OC1(C)C
4. C=CCn1c(=O)c2cnc(Nc3ccc(N4CCN(C)CC4)cc3)nc2n1-c1cccc(C(C)(C)O)n1 + COC1C(OC(N)=O)C(O)C(Oc2ccc3c(O)c(NC(=O)c4ccc(O)c(CC=C(C)C)c4)c(=O)oc3c2C)OC1(C)C
5. CC(=O)O[C@H]1C(=O)[C@@]2(C)[C@H]([C@H](OC(=O)c3ccccc3)[C@]3(O)C[C@H](OC(=O)[C@H](O)[C@@H](NC(=O)c4ccccc4)c4ccccc4)C(C)=C1C3(C)C)[C@]1(OC(C)=O)CO[C@@H]1C[C@@H]2O + COC1C(OC(N)=O)C(O)C(Oc2ccc3c(O)c(NC(=O)c4ccc(O)c(CC=C(C)C)c4)c(=O)oc3c2C)OC1(C)C
6. CC1COCCN1c1cc(C2(O)CC3CCC(C2)O3)c2cnn(-c3ccn[nH]3)c2n1 (centres undefined) + Cc1cccc(N(C)C(=O)C2C(O)CCN2c2nc(C)cc(C(F)(F)F)c2C#N)c1

Solution:
1. > 10000 nM
2. > 10000 nM
3. > 10000 nM
4. 249 nM
5. < 9.49 nM
6. < 31.6 nM
